Entry source: patent US7033991

SYSTEM UNDER TEST: T1, Furin (recombinant, truncated) (mouse), P23188
T1 chain: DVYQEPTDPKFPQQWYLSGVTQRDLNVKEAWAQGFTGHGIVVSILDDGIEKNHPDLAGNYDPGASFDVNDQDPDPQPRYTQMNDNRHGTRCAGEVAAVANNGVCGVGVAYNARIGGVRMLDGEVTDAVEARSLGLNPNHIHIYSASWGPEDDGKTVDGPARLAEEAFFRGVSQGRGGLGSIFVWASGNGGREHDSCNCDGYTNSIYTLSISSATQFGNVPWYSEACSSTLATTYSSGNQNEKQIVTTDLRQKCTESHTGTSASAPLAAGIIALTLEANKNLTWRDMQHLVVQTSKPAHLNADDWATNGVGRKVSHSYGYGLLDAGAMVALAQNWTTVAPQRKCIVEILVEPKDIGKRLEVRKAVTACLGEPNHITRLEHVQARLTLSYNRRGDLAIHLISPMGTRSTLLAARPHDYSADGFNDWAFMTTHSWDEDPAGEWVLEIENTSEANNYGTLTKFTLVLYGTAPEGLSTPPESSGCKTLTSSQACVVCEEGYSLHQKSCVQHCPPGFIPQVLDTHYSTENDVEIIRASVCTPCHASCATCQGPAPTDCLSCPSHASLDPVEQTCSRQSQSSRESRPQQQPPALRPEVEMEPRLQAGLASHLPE
ASSAY CONDITIONS: modification not given
pKi: −log10 of the molar value.
ENDPOINT LABEL: pKi

1. Ac-MHKRRR-NH2 [Ac-MHKRRR-NH2] | 4.99
